experimental_system: sCoV2-RBD (Fc-tagged RBD of SARS-CoV-2 S protein) (SARS-CoV-2; human, UniProt P0DTC2 319-541)
test: ELISA titration on coated sCoV2-RBD
measured_endpoint: EC50 (nM)
Quick reminder: number only, in nM, skip the unit.

Given CoV2-02 (antibody, V domains shown) VH: QVQMVQSGAEMKKPGASVKVSCKTSGYTFTNSYIHWVRQAPGQGLEWMGWINPISGGTNYAQKFQGRVTMTRDTSINTAYMELSRLRSDDTAVYYCARDRGDYDYGWGTSPFYFDYWGQGTLVSVSS VL: AIQMTQSPSSLSASVGDRVTITCRASQPISKYLNWYQQKPGKAPKLLIYAASSLQSGVPSSFSGSGFGTDFTLTISNLQPEDFATYYCQQSNGIPLTFGGGTKVDIK , state its recorded EC50.
0.47

Given CoV2-33 (antibody, V domains shown) VH: QVQLVESGGGLVQPGRSLRLSCAASRFTFDDHAMHWVRQAPGKGLEWVSGISWNGGIIGYADSVKGRFTISRDNAKNSLYLQMNSLRAEDTALYYCAKGMGFGESNYYAMDVWGQGTMVTVSS VL: QSALTQPASVSGSPGQSITISCTGTSSDVGGYNYVSWYQQHPGKAPKLIIYDVSNRPSGVSNRFSGSKSGNTASLTISGLQAEDEAYYYCSSYTSISNLVVFGGGTKVTVL , state its recorded EC50.
10.8

Given CoV2-32 (antibody, V domains shown) VH: EVQLVESGGGLVQPGRSLRLSCAAPRFTFDDYAIHWVRQVPGKGLEWVSGSSWNSGTIGYAPSVKGRFTISRDNAKNSLFLQMNSLRVEDTALYYCAILPGDYNRVADVFDIWGQGTMVIVSS VL: QAVVTQPPSVSGAPGQRVTISCTGSSSNIGAGYDVHWYQQLPGTAPKLLIYGNNNRPSGVPDRFSGSKSGTSASLAITGLQVEDEADYYCQSYDSSLSGYVFGTGTKVTVL , state its recorded EC50.
12.6

Attribution: patent US20230399384A1
